# targetSystem: rat nerve growth factor (beta-NGF) (rat, UniProt P25427 122-241)
# Sequence (P25427 122-241): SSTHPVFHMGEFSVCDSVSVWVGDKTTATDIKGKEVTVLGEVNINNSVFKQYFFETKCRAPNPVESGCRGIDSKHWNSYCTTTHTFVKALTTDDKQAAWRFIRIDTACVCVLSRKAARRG
# test: cell-based or functional assay
Reported IC50, FLIPR calcium mobilisation values follow for various binders

binder	IC50, FLIPR calcium mobilisation [nM]
1152H5 human IgG4 (antibody, V domains shown) VH: EVQLVQSGAEVKKPGSSVKVSCKASGGTFSTYGISWVRQAPGQGLVWIGGIIPIFDTGNSAQSFQGRVTITADESTSTAYMEVSSLRSDDTAVYYCASSSRIYDMISSLQPYYDMDVWGQGTMVTVSS VL: QAVLTQPSSVSTPPGQKATISCSGSSSNIGNNYVSWYQQLPGTAPKLLIYDNNKRPSGIPDRFSGSKSGTSATLGITGLQTGDEADYYCGTWDSSLSAWVFGGGTKLTVL	0.21
1214A1 human IgG4 (antibody, V domains shown) VH: EVQLVQSGAEVKKPGSSVRVSCKASGGTFSTYGISWVRQAPGQGLEWIGGIIPIFDTGNSAQSFQGRVTITADESTSTAYMEVSSLRSDDTAVYYCASSSRIYDAHLQAYYDMDVWGQGTMVTVSS VL: QAVLTQPSSVSTPPGQKVTISCSGSSSNIGNNYVSWYQQLPGTAPKLLIYDNNKRPPGIPDRFSGSKSGTSATLGITGLQTGDEADYYCGTRDSSLSAWVFGGGTKLTVL	0.16
1230H7 human IgG4 (antibody, V domains shown) VH: EMQLVQSGAEVKKPGSSVKVSCKASGGTFSTYGISWVRQAPGQGLEWIGGIIPIFDTGNSAQSFQGRVTITADESTSTAYMEVSSLRSDDTAVYYCASSSRIYDFNSALISYYDMDVWGQGTMVTVSS VL: QAVLTQPSSVSTPPGQKVTISCSGSSSNIGNNYVSWYQQLPGTAPKLLIYDNNKRPSGIPDRFSGSKSGTSATLGITGLQTGDEADYYCGTWDSSLSAWVFGGGTKLTV	0.18
1126F1 human IgG4 (antibody, V domains shown) VH: EVQLVQTGAEVKKPGSSVKVSCKASGGTFSTYGISWVRQAPGQGLEWIGGIIPIFDTGNSAQSFQGRVTITADESTSTAYMEVSSLRSDDTAVYYCASSSRIYDANRQAVPYYDMDVWGQGTMVTVSS VL: QAVLTQPSSVSTPPGQMVTISCSGSSSDIGNNYVSWYQQLPGTAPKLLIYDNNKRPSGIPDRFSGSKSGTSATLGITGLQTGDEADYYCGTWDSSLSAWVFGGGTKLTVL	0.15
1252A5 IgG4 (antibody, V domains shown, tested as whole human IgG4; also called germlined 1133C11) VH: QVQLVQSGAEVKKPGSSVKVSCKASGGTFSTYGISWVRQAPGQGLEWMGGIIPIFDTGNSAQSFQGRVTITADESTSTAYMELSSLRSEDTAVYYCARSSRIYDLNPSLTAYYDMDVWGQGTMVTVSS VL: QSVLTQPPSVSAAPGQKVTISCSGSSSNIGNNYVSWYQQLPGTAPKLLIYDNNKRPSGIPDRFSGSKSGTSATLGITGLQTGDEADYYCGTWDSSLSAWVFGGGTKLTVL	0.29
